experiment: yeast display, Sf9 membrane polyspecificity reagent, FACS + sequencing; frameworks hold sequencing errors
measured quantity: polyreactivity (PSR sort gate)

Some entries whose results are on file:
# ordered residues, polyreactivity (PSR sort gate)
rows = [
    ("QVQLVDSGGGLVQAGGSLRLSCAASGRIFFANAMGWYRQAPGKERELVAAISWRGGSTYYADSVKGRFTISRDNAKNTVYLQKNSLKPEDTAVYYCAATSRGTDYWGQGTQVTLSS", "high polyreactivity"),
    ("QVQLVESGGGLVQAGGSLRLSCAASRLIFYTYAMGWYRQAPGKETELVAAISFSGGSTYYADSVTGRFTISRDNAKNTVYLLMTSLKPEDTAVYYCAARGYYGYYYWGQGTQVTVSS", "high polyreactivity"),
    ("QVQLVESGGGLVQAGGSLRLSCAASGSTFRYYGMGWYRQAPGKERELVADITSGGTTDYADSVKGRFTISRDNAKNTVYLQMNSLKPEDTAVYYCAAGRWYKRQSTWGFGLDHDYWGQGTQVTVSS", "low polyreactivity"),
    ("QDQLVESGGCLVQAGGSLRLSCAASGGTFRVYAMGWYRQAPGKERELVAAITGRGGSTYYADSVKGRFTISRDNAKNTVYLQMNSLKPDDTAVDYCNKEPELVEYDYWGQGTQVTVSS", "low polyreactivity"),
    ("QVQLVESGGGLVQAGGSLRLSCAASGSIFRVYAMGWYRHAPGKERELVATITWNGGSTYYADSVKGRFTISRDNAKNTVYLQMNSLKPEDTAVYYCAAGRDTWPSTYYYWGQGSQVTVSS", "low polyreactivity"),
    ("QVQLVESGGGLVQAGGSLRLICAASGRIFGYNAMGWYRQEPGKERELVAAISSGGSTYYADSVKGRFTISRDHAKNTVYLQMNSLKPEDTAVYYCAAEDYPPYTTEYDYWGQGTQVTVSS", "low polyreactivity"),
    ("QVQLVESGGGLVQAGGSLRLSCAASGSIFPWYAMGWYRQAPGKERELVAAITISGGSTHYADSEKGRFTISRDTAKNTVYLQLKSLKPEDTAVYYCAADFLPQSYNCYDYWGQGTQVTVSS", "low polyreactivity"),
    ("QVQLVESGGGLVQAGGSLRLSCAASGSTFRRYAMGWYRQAPGKERELVAAITGSGGRTYYADSVKGRFTISRDNAKNTVYLQMNSLIPVDTAVYYCAKEGTFTKGVRLFDYWGQGTQVTVSS", "high polyreactivity"),
]

Turning now to a further record.
Sure, the documented polyreactivity (PSR sort gate) for `QVQLVESGVGLVQAGGSLRLSCAASGFIFYNYAMGWYRQAPGKERELVASITSGGGTNYADSVKGRFTISRDNAKNTVYLQMNSLKPEDTAVYYCAVRGRGRFNGYGYWGQGTQVTVSS` is high polyreactivity

----------
assay: yeast display, Sf9 membrane polyspecificity reagent, FACS + sequencing; frameworks hold sequencing errors
measured quantity: polyreactivity (PSR sort gate)

Use the examples below as a reference point.
# ordered residues, measurement
measured = [
    ("QVQLVESGGGLVQAGGSLRLSCAASGINFRQYTMGWFRQAPGKERELVAAITSSGRTYYADSVKGRFTISRDNAKNTVYLQMNSLKPEDTAVYYCAAKGTYRGHDYWGQGTQVTVSS", "high polyreactivity"),
    ("QLQLVESGGGLVQAGGSLRLSCAASGFIFSWYAMGWYRQAPGKERELVAAISWSGGSTYYADSVKGRITISRDNANNSVYLQMNSLKPEDTAVYYCADDRGWAKEYYWVQGTQVTVSS", "high polyreactivity"),
    ("QVQLVESGGGLVQAGGSLRLSCAASGGTFFSYTKGWYRQAPGKERELVAAITWSGASTYYADSVKGRFTISRDNAKNTVYIQMNSLKPEDTAVYYCAADSYDSPGYLTTSTYRLDYWGQGTHVTVSS", "low polyreactivity"),
    ("QVQLVESGGGLVQAGGSLRLICAASGLTFLNNAMGSYRQAPGKERELVAAISDGGSTNYADSVKGRFTISRDNAKNTVYLQMNSLKAEDTAVYYCAAVYTSASSGSWGQGTQVTVSS", "low polyreactivity"),
]

Sure, the documented polyreactivity (PSR sort gate) for `QVQHVESRGGLVQSGGSLRLSCAASGSIFSYYDLGWYRQAPGKERELVASISSGGSTYYADSVKGRFTISRDNAKNTVYLQMNSLKPEDTAVYYCAAVSRWLYWEDDYWGQGTQVTVSS` is low polyreactivity
